assay: Metabolic stability in rat liver homogenates after 30 mins by LC-MS analysis; type: ADME, tissue-based
measured metric: remaining at 0.5 h (%)
Answer with a number only, understood to be in %.

Ask: Answer with the recorded remaining at 0.5 h of CCC1OC1C/C=C\C/C=C\C/C=C\C/C=C\CCCC(=O)O (stereo unspecified) only.
Result: 20
